measured.on: C. elegans Slo-1a (Caenorhabditis elegans)
Sequence (Q95V25 whole entry): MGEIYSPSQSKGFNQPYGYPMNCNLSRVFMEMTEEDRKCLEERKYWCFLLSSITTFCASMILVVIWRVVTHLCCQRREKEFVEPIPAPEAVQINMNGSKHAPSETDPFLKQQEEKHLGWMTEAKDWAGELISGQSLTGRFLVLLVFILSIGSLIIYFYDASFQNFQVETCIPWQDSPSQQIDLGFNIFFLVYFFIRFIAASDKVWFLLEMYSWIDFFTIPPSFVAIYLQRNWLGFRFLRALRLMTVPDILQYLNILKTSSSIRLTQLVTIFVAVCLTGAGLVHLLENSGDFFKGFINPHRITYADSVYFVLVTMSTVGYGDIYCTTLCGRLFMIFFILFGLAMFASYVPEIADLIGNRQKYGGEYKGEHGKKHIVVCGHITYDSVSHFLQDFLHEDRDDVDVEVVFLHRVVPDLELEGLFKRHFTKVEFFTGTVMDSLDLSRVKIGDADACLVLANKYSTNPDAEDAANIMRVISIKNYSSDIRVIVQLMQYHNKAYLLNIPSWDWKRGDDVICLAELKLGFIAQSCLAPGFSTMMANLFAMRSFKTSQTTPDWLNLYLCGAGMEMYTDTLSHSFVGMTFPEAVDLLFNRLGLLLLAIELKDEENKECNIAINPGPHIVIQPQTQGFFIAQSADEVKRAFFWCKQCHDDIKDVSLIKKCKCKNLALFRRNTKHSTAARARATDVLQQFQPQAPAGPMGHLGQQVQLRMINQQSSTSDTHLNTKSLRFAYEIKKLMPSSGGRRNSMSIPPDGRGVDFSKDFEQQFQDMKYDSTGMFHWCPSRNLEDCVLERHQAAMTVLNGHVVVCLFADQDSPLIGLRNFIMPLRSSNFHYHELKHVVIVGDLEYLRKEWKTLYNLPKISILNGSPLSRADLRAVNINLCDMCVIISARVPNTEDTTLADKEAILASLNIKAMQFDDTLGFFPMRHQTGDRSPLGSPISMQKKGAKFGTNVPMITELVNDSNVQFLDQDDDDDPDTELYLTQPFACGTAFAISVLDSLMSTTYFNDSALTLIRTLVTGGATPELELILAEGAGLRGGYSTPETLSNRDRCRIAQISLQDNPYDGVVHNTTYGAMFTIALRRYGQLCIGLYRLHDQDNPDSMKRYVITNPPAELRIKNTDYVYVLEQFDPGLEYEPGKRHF
measurement.protocol: In vitro assay 1: C. elegans Slo-1a, action at a recombinant C. elegans CHO cell line (membrane potential measurement)
applied.conditions: CHO cells expressing C. elegans Slo-1a; voltage sensitive dye, FLIPR Tetra; negative decadic logarithm of EC50
For each record, write down the corresponding pE50.
# print the numeric value only

-- ask Observed pE50 on C. elegans Slo-1a (Caenorhabditis elegans) for O=C(N[C@H]1CCOc2ccccc21)c1cnc2c(-c3cccc(Cl)c3)c(C(F)F)nn2c1C1CC1 , please.
-- reply 8.3

-- ask Observed pE50 on C. elegans Slo-1a (Caenorhabditis elegans) for Cc1nn2c(C(C)C)c(C(=O)N[C@H]3CCc4ccccc43)cnc2c1-c1cc(Cl)cc(Cl)c1 , please.
-- reply 7.5

-- ask Observed pE50 on C. elegans Slo-1a (Caenorhabditis elegans) for CC(C)c1c(C(=O)N[C@H]2CCc3ccccc32)cnc2c(-c3cccc(Cl)c3)cnn12 , please.
-- reply 6.5

-- ask Observed pE50 on C. elegans Slo-1a (Caenorhabditis elegans) for Cc1ccccc1-c1c(C)nn2c(N(C)C)c(C(=O)N[C@H]3CCOc4ccccc43)cnc12 , please.
-- reply 8.2

-- ask Observed pE50 on C. elegans Slo-1a (Caenorhabditis elegans) for CC(C)c1c(C(=O)N[C@H]2CCOc3ccccc32)cnc2c(-c3cccc(F)c3F)c(C(F)F)nn12 , please.
-- reply 8.2

-- ask Observed pE50 on C. elegans Slo-1a (Caenorhabditis elegans) for CC(C)c1c(C(=O)N[C@H]2CCCc3ccccc32)cnc2c(-c3cccc(F)c3F)c(Cl)nn12 , please.
-- reply 7.9

-- ask Observed pE50 on C. elegans Slo-1a (Caenorhabditis elegans) for CCc1c(C(=O)N[C@H]2CCOc3ccccc32)cnc2c(-c3cccc(F)c3F)c(C)nn12 , please.
-- reply 8.2

-- ask Observed pE50 on C. elegans Slo-1a (Caenorhabditis elegans) for Cc1nn2c(C(C)C)c(C(=O)NC3CCOc4ccc(F)cc43)cnc2c1-c1c(F)cccc1Cl (racemic) , please.
-- reply 8.1

-- ask Observed pE50 on C. elegans Slo-1a (Caenorhabditis elegans) for CCc1c(C(=O)N[C@H]2CCOc3ccccc32)cnc2c(-c3ccc(Cl)cc3Cl)c(C)nn12 , please.
-- reply 8.2

-- ask Observed pE50 on C. elegans Slo-1a (Caenorhabditis elegans) for Cc1nn2c(C(C)C)c(C(=O)N[C@H]3CCCc4ccccc43)cnc2c1-c1ccccc1Cl , please.
-- reply 8

-- ask Observed pE50 on C. elegans Slo-1a (Caenorhabditis elegans) for Cc1nn2c(C3CC3)c(C(=O)N[C@H]3CCOc4ccccc43)cnc2c1-c1cccc(O)c1 , please.
-- reply 6.3

-- ask Observed pE50 on C. elegans Slo-1a (Caenorhabditis elegans) for COc1c(F)ccc(-c2c(C(F)F)nn3c(C4CC4)c(C(=O)N[C@H]4CCOc5ccccc54)cnc23)c1F , please.
-- reply 9

-- ask Observed pE50 on C. elegans Slo-1a (Caenorhabditis elegans) for CCc1c(C(=O)N[C@H]2CCOc3ccccc32)cnc2c(-c3c(Cl)cccc3Cl)c(C)nn12 , please.
-- reply 8.3

-- ask Observed pE50 on C. elegans Slo-1a (Caenorhabditis elegans) for Cc1nn2c(C3CC3)c(C(=O)N[C@H]3CCOc4ccccc43)cnc2c1-c1cnn(CC(F)(F)F)c1 , please.
-- reply 7.8

-- ask Observed pE50 on C. elegans Slo-1a (Caenorhabditis elegans) for Cc1nn2c(C(C)C)c(C(=O)N[C@H]3CCc4ccccc43)cnc2c1-c1ccccc1Cl , please.
-- reply 7.9

-- ask Observed pE50 on C. elegans Slo-1a (Caenorhabditis elegans) for Cc1nn2c(C(C)C)c(C(=O)N[C@H]3CCOc4ccc(Cl)cc43)cnc2c1-c1cc(F)ccc1F , please.
-- reply 6.9

-- ask Observed pE50 on C. elegans Slo-1a (Caenorhabditis elegans) for Cc1nn2c(C(C)C)c(C(=O)N[C@H]3CCCc4ccccc43)cnc2c1-c1ccc(Cl)c(C(=O)NC2CC2)c1 , please.
-- reply 5.5

-- ask Observed pE50 on C. elegans Slo-1a (Caenorhabditis elegans) for Cc1nn2c(C(C)C)c(C(=O)N[C@H]3CCOc4ccccc43)cnc2c1-c1ccc(F)c(N(C)C)c1F , please.
-- reply 9.3

-- ask Observed pE50 on C. elegans Slo-1a (Caenorhabditis elegans) for Cc1nn2c(NC3CC3)c(C(=O)N[C@H]3CCOc4ccccc43)cnc2c1-c1cc(F)cc(F)c1 , please.
-- reply 6.8

-- ask Observed pE50 on C. elegans Slo-1a (Caenorhabditis elegans) for Cc1nn2c(C(C)C)c(C(=O)N[C@H]3CCOc4ccccc43)cnc2c1-c1cccc2[nH]ccc12 , please.
-- reply 7.7

-- ask Observed pE50 on C. elegans Slo-1a (Caenorhabditis elegans) for CSCCN(C)c1c(C(=O)N[C@H]2CCOc3ccccc32)cnc2c(-c3cccc(Cl)c3Cl)c(C)nn12 , please.
-- reply 8.1

-- ask Observed pE50 on C. elegans Slo-1a (Caenorhabditis elegans) for Cc1nn2c(C(C)C)c(C(=O)N[C@H]3CCOc4ccccc43)cnc2c1-c1cccc2c1ccn2C , please.
-- reply 7.8

-- ask Observed pE50 on C. elegans Slo-1a (Caenorhabditis elegans) for Cc1nn2c(C(C)C)c(C(=O)N[C@H]3CCOc4ccc(Cl)cc43)cnc2c1-c1cccc(Cl)c1 , please.
-- reply 6.8

-- ask Observed pE50 on C. elegans Slo-1a (Caenorhabditis elegans) for Cc1c(C(=O)N[C@H]2CCCc3ccccc32)cnc2c(-c3ccccc3Cl)cnn12 , please.
-- reply 6.2

-- ask Observed pE50 on C. elegans Slo-1a (Caenorhabditis elegans) for Cc1nn2c(N(C)C)c(C(=O)N[C@H]3CCOc4ccccc43)cnc2c1-c1ccc(F)c(N(C)C)c1F , please.
-- reply 8.7

-- ask Observed pE50 on C. elegans Slo-1a (Caenorhabditis elegans) for Cc1nn2c(C3CC3)c(C(=O)N[C@H]3CCOc4ccccc43)cnc2c1-c1cccc2c1CCO2 , please.
-- reply 8.6

-- ask Observed pE50 on C. elegans Slo-1a (Caenorhabditis elegans) for Cc1nn2c(N3CCOCC3)c(C(=O)N[C@H]3CCOc4ccccc43)cnc2c1-c1c(Cl)cccc1Cl , please.
-- reply 8.3

====

For each record, write down the corresponding logP (Method L0) [a].
measurement.protocol: log P by HPLC on reversed phase columns (Method L0; [a] acidic, [b] neutral range)
applied.conditions: HPLC on reversed phase columns, Method L0, [a] acidic range
# print the numeric value only

-- ask Fill in: logP (Method L0) [a] of Cc1c(C(=O)N[C@H]2CCCc3ccccc32)cnc2c(-c3ccccc3Cl)c(C(F)(F)F)nn12 [Example 90] is ___
-- reply 4.5

-- ask Fill in: logP (Method L0) [a] of Cc1ccc2c(c1)[C@@H](NC(=O)c1cnc3c(-c4ccc(Cl)cc4)c(C)nn3c1C(C)C)CCC2 [Example 113] is ___
-- reply 5.88

-- ask Fill in: logP (Method L0) [a] of CC(C)c1c(C(=O)N[C@H]2CCCc3ccccc32)cnc2c(-c3ccc(Cl)cc3)c(Cl)nn12 [Example 76] is ___
-- reply 5.79

-- ask Fill in: logP (Method L0) [a] of Cc1nn2c(C(C)C)c(C(=O)N[C@H]3CCOc4ccc(Cl)cc43)cnc2c1-c1c(F)cccc1F [Example 97] is ___
-- reply 4.61

-- ask Fill in: logP (Method L0) [a] of Cc1c(C(=O)N[C@H]2CCc3ccccc32)cnc2c(-c3cccc(Cl)c3)cnn12 [Example 52] is ___
-- reply 4.04

-- ask Fill in: logP (Method L0) [a] of CC(C)c1c(C(=O)N[C@H]2CCc3ccccc32)cnc2c(-c3cnc(F)c(F)c3)c(C(F)(F)F)nn12 [Example 163] is ___
-- reply 4.76

-- ask Fill in: logP (Method L0) [a] of O=C(N[C@H]1CCc2ccccc21)c1cnc2c(-c3cc(Cl)cc(Cl)c3)cnn2c1 [Example 47] is ___
-- reply 4.74

-- ask Fill in: logP (Method L0) [a] of Cc1c(C(=O)N[C@H]2CCCc3ccccc32)cnc2c(-c3cccc(Cl)c3)c(Cl)nn12 [Example 58] is ___
-- reply 4.9

-- ask Fill in: logP (Method L0) [a] of Cc1c(C(=O)N[C@H]2CCc3ccccc32)cnc2c(-c3cccc(Cl)c3)c(C(F)(F)F)nn12 [Example 55] is ___
-- reply 4.68

-- ask Fill in: logP (Method L0) [a] of Cc1ccc2c(c1)[C@@H](NC(=O)c1cnc3c(-c4ccc(F)c(F)c4)c(C)nn3c1C(C)C)CCC2 [Example 112] is ___
-- reply 5.55

-- ask Fill in: logP (Method L0) [a] of Cc1nn2c(C(C)C)c(C(=O)N[C@H]3CCOc4ccccc43)cnc2c1-c1ccc(C(F)(F)F)c(F)c1 [Example 187] is ___
-- reply 4.85

-- ask Fill in: logP (Method L0) [a] of Cc1c(C(=O)N[C@H]2CCCc3ccccc32)cnc2c(-c3cc(Cl)cc(Cl)c3)c(C(F)(F)F)nn12 [Example 82] is ___
-- reply 5.66

-- ask Fill in: logP (Method L0) [a] of Cc1c(C(=O)N[C@H]2CCc3ccccc32)cnc2c(-c3cccc(C(F)(F)F)c3)c(Cl)nn12 [Example 71] is ___
-- reply 4.73

-- ask Fill in: logP (Method L0) [a] of Cc1c(C(=O)N[C@H]2CCc3ccccc32)cnc2c(-c3cccc(Cl)c3)c(Cl)nn12 [Example 75] is ___
-- reply 4.6

-- ask Fill in: logP (Method L0) [a] of Cc1ccc2c(c1)[C@@H](NC(=O)c1cnc3c(-c4ccccc4Cl)c(C)nn3c1C(C)C)CCC2 [Example 111] is ___
-- reply 5.37

-- ask Fill in: logP (Method L0) [a] of O=C(N[C@H]1CCc2ccccc21)c1cnc2c(-c3cccc(Cl)c3)c(C(F)(F)F)nn2c1 [Example 50] is ___
-- reply 4.57

-- ask Fill in: logP (Method L0) [a] of Cc1nn2c(C(C)C)c(C(=O)N[C@H]3CCCc4ccccc43)cnc2c1-c1ccc(Cl)c(C(=O)NC2CC2)c1 [Example 119] is ___
-- reply 4.07

-- ask Fill in: logP (Method L0) [a] of Cc1c(C(=O)N[C@H]2CCCc3ccccc32)cnc2c(-c3cccc(Cl)c3)c(C(F)(F)F)nn12 [Example 86] is ___
-- reply 4.94

-- ask Fill in: logP (Method L0) [a] of CC(C)c1c(C(=O)N[C@H]2CCc3ccccc32)cnc2c(-c3ccc(Cl)nc3)c(C(F)(F)F)nn12 [Example 164] is ___
-- reply 4.7

-- ask Fill in: logP (Method L0) [a] of Cc1nn2c(C(C)C)c(C(=O)N[C@H]3CCOc4ccc(Cl)cc43)cnc2c1-c1ccc(F)c(F)c1 [Example 101] is ___
-- reply 5.03

-- ask Fill in: logP (Method L0) [a] of Cc1c(C(=O)N[C@H]2CCc3ccccc32)cnc2c(-c3cc(Cl)cc(Cl)c3)cnn12 [Example 65] is ___
-- reply 4.84

-- ask Fill in: logP (Method L0) [a] of CC(C)c1c(C(=O)N[C@H]2CCCc3ccccc32)cnc2c(-c3ccc(Cl)cc3)c(C(F)(F)F)nn12 [Example 54] is ___
-- reply 5.76

-- ask Fill in: logP (Method L0) [a] of Cc1nn2c(C(C)C)c(C(=O)N[C@H]3CCOc4ccc(Cl)cc43)cnc2c1-c1ccccc1Cl [Example 104] is ___
-- reply 4.87

-- ask Fill in: logP (Method L0) [a] of CC(C)c1c(C(=O)N[C@H]2CCCc3ccccc32)cnc2c(-c3cc(Cl)cc(Cl)c3)c(Cl)nn12 [Example 64] is ___
-- reply 6.69

-- ask Fill in: logP (Method L0) [a] of Cc1c(C(=O)N[C@H]2CCCc3ccccc32)cnc2c(-c3cc(Cl)cc(Cl)c3)c(Cl)nn12 [Example 68] is ___
-- reply 5.78

-- ask Fill in: logP (Method L0) [a] of Cc1nn2c(C(C)C)c(C(=O)N[C@H]3CCOc4ccc(Cl)cc43)cnc2c1-c1ccccc1F [Example 93] is ___
-- reply 4.67

-- ask Fill in: logP (Method L0) [a] of CC(C)c1c(C(=O)N[C@H]2CCc3ccccc32)cnc2c(-c3ccc(F)cc3)c(C(F)(F)F)nn12 [Example 162] is ___
-- reply 4.95

-- ask Fill in: logP (Method L0) [a] of O=C(N[C@H]1CCc2ccccc21)c1cnc2c(-c3ccc(Cl)cc3)c(C(F)(F)F)nn2c1 [Example 80] is ___
-- reply 4.61

-- ask Fill in: logP (Method L0) [a] of CC(C)c1c(C(=O)N[C@H]2CCCc3ccccc32)cnc2c(-c3cccc(Cl)c3)c(C(F)(F)F)nn12 [Example 51] is ___
-- reply 5.74

-- ask Fill in: logP (Method L0) [a] of Cc1ccc2c(c1)[C@@H](NC(=O)c1cnc3c(-c4cccc(C(F)(F)F)c4)c(C)nn3c1C(C)C)CCC2 [Example 5] is ___
-- reply 5.99
